The origin of these recorded values is ChEMBL document CHEMBL1201862.

- Tested on: SNB-19
- assay details: NCI tumour cell line growth inhibition, 48 h
Activity calls are given as the source filed them. No stated cut-off is given here; in the data, active = GI50 up to about 1.1 µM and inactive = higher.
The reply should be one of these categories: TRUE = active, FALSE = inactive

Known results for compounds:
compound	class name
CCC(C(=O)c1cccs1)C(O)(C(F)(F)F)C(F)(F)F (stereo not drawn)	FALSE
O=C(Cl)C1=C(c2ccccc2)C1c1ccccc1 (stereo not drawn)	FALSE
Cc1cccc(NC(=O)c2cc3cc(/N=N/c4ccccc4Cl)ccc3oc2=O)c1	FALSE
N#Cc1ccc(-c2nc(C#N)c(N)o2)cc1	FALSE

Per the records of this test, what outcome belongs to C=C(C)[C@@H]1CC[C@]2(C(=O)OC)CC[C@]3(C)[C@H](CC[C@@H]4[C@@]5(C)CC[C@H](O)C(C)(C)[C@@H]5CC[C@]43C)[C@@H]12 [METHYL BETULINATE] ?
FALSE

###

- Tested on: HT-29
- assay details: NCI tumour cell line growth inhibition, 48 h
The source made the active and inactive calls. Cut-off read from the data, not from the text of the source: active = GI50 up to about 1.1 µM and inactive = higher.
Each record here notes measured GI50.

Illustrative cases are given below, each with its answer.
> print(dat)
                                   molecule  recorded.metric          meas.value
1  CC(C)NC(=O)OCc1c(COC(=O)NC(C)C)c(-c2ccc[n+](COC(=O)C(C)C)c2)n2c1CCC2             GI50  73.8 µM (inactive)
2   O=[N+]([O-])c1cc2oc(COc3ccccc3)nc2cc1Cl             GI50  32.5 µM (inactive)
3                O=C1CNc2cc(N3CCCCC3)ccc2N1             GI50  8.32 µM (inactive)

Please report the recorded GI50 for CCOC1(OCC)C2C=CC1C(COS(=O)(=O)c1ccc(C)cc1)C2COS(=O)(=O)c1ccc(C)cc1 (stereo not given) .
25.6 µM (inactive)

Same read-out for O=C1NC(c2ccc(O)cc2)C2CCC1C2 (stereo not given) ?
> 100 µM (inactive)

Same for "CN(c1ccc(Cl)cc1)S(=O)(=O)c1ccccc1"
42.3 µM (inactive)

###

- System: DMS-114
- assay details: NCI tumour cell line growth inhibition, 48 h
The source made the active and inactive calls. Cut-off read from the data, not from the text of the source: active = GI50 up to about 1.1 µM and inactive = higher.
GI50: recorded values

The examples below pair each entry with its known result.
> print(dat)
                                   compound           meas.value
1  Oc1ccc2c3c1OC1C(=NN=C4CCC5(O)C6Cc7ccc(O)c8c7C5(CCN6CC5CC5)C4O8)CCC4(O)C(C2)N(CC2CC2)CCC314 (stereo not drawn)   21.6 µM (inactive)
2      CNS(=O)(=O)NN(C)S(=O)(=O)c1ccc(F)cc1  > 100 µM (inactive)

Request - read-out GI50 | tested on DMS-114 | compound "O=C1/C(=C/c2ccccc2)CN(C(=O)CCN2CCOCC2)C/C1=C\c1ccccc1"
2.88 µM (inactive)

Now this one: CCOc1ccc(C(CN2CCOCC2)C(C)=O)cc1OC (stereo not drawn)
15.7 µM (inactive)

Follow-up entry: O=C(Nc1ccc(Br)cc1)C(=O)C(C(=O)c1ccc(Cl)c(Cl)c1)C1OC(=O)c2ccccc21 (stereo not drawn)
10.9 µM (inactive)

Would you kindly repeat that for COC(=O)C(=O)C(C(=O)C(=O)Nc1cc([N+](=O)[O-])ccc1[N+](=O)[O-])c1nc2ccc(C(=O)c3ccccc3)cc2nc1O (stereo not drawn) ?
23.2 µM (inactive)

How about N/N=C1\C(=O)N(c2ccc(Cl)cc2Cl)C(=O)C(=O)C1c1nc2ccccc2o1 (stereo not drawn) ?
> 100 µM (inactive)

Now the compound CCOP(=O)(OCC)C1C(=O)O[C@H]2CCCC[C@@H]12 (stereo partly drawn)
> 100 µM (inactive)

###

- Test system: DU-145
- assay details: NCI tumour cell line growth inhibition, 48 h
Active and inactive are the calls of the source. Rule as the data show it: active = GI50 up to about 1.1 µM and inactive = higher.
# GI50 listing for each entry below

Reference set (3 entries):
compound	GI50
Cn1c2ccc([N+](=O)[O-])cc2c(=O)c2c(O)cc(O)cc21	47.8 µM (inactive)
CC1=CC(C)C(O)C(C)/C=C\C(O)C/C=C(/C)C(=O)CC(O)C(C)\C=C/C=C\C=C/C(=O)NC2=C(O)C(=O)c3c(cc(C)c(O)c3C1=O)C2=O (stereo unspecified)	76.6 µM (inactive)
CN(C)c1ccc(C(=NN)c2ccc(N(C)C)cc2)cc1	2.2 µM (inactive)

Form: Entry = CC(C)(C)OC(=O)C1C(=O)NC(=O)CC1CC(OCc1ccccc1)C(COCc1ccccc1)OCc1ccccc1 (stereo unspecified) | System = DU-145 | GI50 = ____
23.6 µM (inactive)

Param item: "O=C(CC(O)(C(F)(F)F)C(F)(F)F)c1cccs1"
> 10 µM (inactive)

###

- Tested on: RPMI-8226
- assay details: NCI tumour cell line growth inhibition, 48 h
Active and inactive are the calls of the source. No stated cut-off is given here; in the data, active = GI50 up to about 1.1 µM and inactive = higher.
recorded metric: GI50

> print(dat)
                                   compound  recorded.metric           meas.value
1  O=C1c2c(O)cc(O)cc2C(C2OC(CO)C(O)C(O)C2O)c2cc(CO)cc(O)c21 (stereo not given)             GI50  > 100 µM (inactive)

Consider the record given below.
Observed GI50 on RPMI-8226 for COc1ccc(N[S+]([O-])c2ccc(OC)cc2)cc1 (stereo not given) , please.
47 µM (inactive)

###

- System: SNB-75
- assay details: NCI tumour cell line growth inhibition, 48 h
Active and inactive are the calls of the source. Cut-off read from the data, not from the text of the source: active = GI50 up to about 1.1 µM and inactive = higher.
Permitted responses: 1 (yes) = active, 0 (no) = inactive

compound	class name
COC1=C2CC(C)CC(OC)C(O)C(C)/C=C(\C)C(OC(N)=O)C(OC)/C=C\C=C(/C)C(=O)NC(=C(/C=N/C(C)(C)C)C1=O)C2=O (stereo not given)	1 (yes)
CC(C)(C)OC(=O)c1ccc(NCC2=CC(=O)C=CC2=O)cc1	0 (no)
CC1=C(N2CC2)C(=O)C(C)=C(N2CC2)C1=O	1 (yes)

Please let me know the test result on file for O=C1NC(c2ccc(O)cc2)C2CCC1C2 (stereo not given) .
0 (no)

Input "Cc1nc(N(C(C)C)C(C)C)c(C(C)C)o1"
0 (no)

And the next one, "CC(=O)OC(=C(C#N)C#N)c1nccnc1C(=O)O" ?
0 (no)

Entry "O=C(O)CCC[C@]1(O)O[C@@]2(CCCC2=O)[C@]2(O)CCC[C@@]21O" please
0 (no)

And for "Cc1ccnc(NC(NC(=O)c2ccccc2)(C(F)(F)F)C(F)(F)F)c1" ?
0 (no)

Param item: "C=CC[C@@H](N)C(=O)N(C)[C@@H](C)[C@@H](O)c1ccccc1"
0 (no)

Okay, and "CCOC(=O)C1=NN(c2ccc([N+](=O)[O-])cc2)[C@@]2(C)C[C@]3(c4ccccc4)N(c4ccc([N+](=O)[O-])cc4)N=C(C(=O)OCC)N3c3ccccc3N12" ?
0 (no)

"O=C1c2ccccc2-c2nc(-c3cccnc3)cc3c2c1nc1ccccc13" , same question.
0 (no)

###

- Tested on: SR
- assay details: NCI tumour cell line growth inhibition, 48 h
Calls of active or inactive are those of the source. Rule as the data show it: active = GI50 up to about 1.1 µM and inactive = higher.
The reply should name one outcome from true (1) for active, false (0) for inactive

> print(dat)
                                   compound  class.name
1  O=C1c2c(O)cc(O)cc2C(C2OC(CO)C(O)C(O)C2O)c2cc(CO)cc(O)c21 (centres undefined)   false (0)
2  CN(C)CCN1Nc2c3ccccc3nc3c(C(=O)NCCCN(C)CCCNC(=O)c4ccc5c6c(c7ccccc7nc46)NN5CCN(C)C)ccc1c23    true (1)
3  CCOC1(OCC)C2C=CC1C(COS(=O)(=O)c1ccc(C)cc1)C2COS(=O)(=O)c1ccc(C)cc1 (centres undefined)   false (0)

Please examine the following record next.
Which outcome did this test record for the compound "COc1cc2c(cc1OC)-c1cc3ccccc3c[n+]1CC2" ?
false (0)

###

- Test system: HCC 2998
- assay details: NCI tumour cell line growth inhibition, 48 h
Active and inactive are the calls of the source. Cut-off read from the data, not from the text of the source: active = GI50 up to about 1.1 µM and inactive = higher.
Could you please pick one outcome from this set? label 1 for active, label 0 for inactive

Field: example entries. Status: answers known.
compound	class name
COc1c2occc2cc2ccc(=O)oc12 [METHOXSALEN]	label 0
O=C1Nc2ccccc2/C1=N/Nc1c(F)c(F)c(F)c(F)c1F	label 0

What classification did "O=C1Sc2ccccc2/C1=N/Nc1ccccc1[N+](=O)[O-]" end up with in this test?
label 0

Same read-out for COC(=O)C1CCc2nnc(-c3ccccc3)n21 (centres undefined) ?
label 0

What about this compound? "O=C1O/C(=C(\Br)c2cccc3ccccc23)c2ccccc21"
label 0

Okay, and "Brc1ccc(/N=N/N2CCCC2)cc1" ?
label 0

Lookup "Cc1cc(C)n(-c2c(O)ccc(O)c2-n2nc(C)cc2C)n1"
label 0
